Data credit: patent US20240016938A1

assay.overview: Pooled population PK analysis of dC and dT (five studies: healthy volunteers, renal impairment, TK2d participants)
assay.context: human, in vivo
measured.quantity: bioavailability

Q. For the compound Cc1cn([C@H]2C[C@H](O)[C@@H](CO)O2)c(=O)[nH]c1=O , what bioavailability is on record?
A. ~83%

====

assay.overview: Phase 1 open-label, fixed-sequence, single-ascending dose and food-effect PK study of MT1621 in adult healthy subjects
Type: in vivo, human
assay.context: both sexes, human, plasma, oral, 133.3 mg/kg, Treatment C: single 133.3 mg/kg MT1621, fasted; baseline-adjusted plasma; geometric mean (geometric CV %); read-out: AUC0-48
Exercise: state measured AUC(0-t) for each of the compounds provided.
# number only, unit ng·h/mL dropped from output

Q. For the compound Nc1ccn([C@H]2C[C@H](O)[C@@H](CO)O2)c(=O)n1 , what AUC(0-t) is on record?
A. 53.1

Q. For the compound Cc1cn([C@H]2C[C@H](O)[C@@H](CO)O2)c(=O)[nH]c1=O , what AUC(0-t) is on record?
A. 114

====

assay.overview: Phase 1 open-label, fixed-sequence, single-ascending dose and food-effect PK study of MT1621 in adult healthy subjects
Type: in vivo, human
assay.context: both sexes, human, plasma, oral, 133.3 mg/kg, Treatment C: single 133.3 mg/kg MT1621, fasted; baseline-adjusted plasma; geometric mean (geometric CV %); read-out: AUC0-t
measured.quantity: AUC(0-t)

Q. For the compound Cc1cn([C@H]2C[C@H](O)[C@@H](CO)O2)c(=O)[nH]c1=O [dT, β-D-2′-deoxythymidine] , what AUC(0-t) is on record?
A. 91.2 ng·h/mL

Q. For the compound Nc1ccn([C@H]2C[C@H](O)[C@@H](CO)O2)c(=O)n1 [dC, β-D-2′-deoxycytidine] , what AUC(0-t) is on record?
A. 30.8 ng·h/mL

====

assay.overview: Phase 1 open-label, fixed-sequence, single-ascending dose and food-effect PK study of MT1621 in adult healthy subjects
Assay type: in vivo, human
assay.context: both sexes, human, plasma, oral, 43.3 mg/kg, Treatment A: single 43.3 mg/kg MT1621, fasted; baseline-adjusted plasma; geometric mean (geometric CV %); read-out: AUC0-4
Exercise: state measured AUC(0-t) for each of the compounds provided.

Q. For the compound Nc1ccn([C@H]2C[C@H](O)[C@@H](CO)O2)c(=O)n1 [dC, β-D-2′-deoxycytidine] , what AUC(0-t) is on record?
A. 7.84 ng·h/mL

Q. For the compound Cc1cn([C@H]2C[C@H](O)[C@@H](CO)O2)c(=O)[nH]c1=O [dT, β-D-2′-deoxythymidine] , what AUC(0-t) is on record?
A. 8.78 ng·h/mL
